Numbers sourced from patent US20180325889A1.

# assayTarget: human IDO1/HEK293 cells (Homo sapiens)
# Sequence (P14902 whole entry): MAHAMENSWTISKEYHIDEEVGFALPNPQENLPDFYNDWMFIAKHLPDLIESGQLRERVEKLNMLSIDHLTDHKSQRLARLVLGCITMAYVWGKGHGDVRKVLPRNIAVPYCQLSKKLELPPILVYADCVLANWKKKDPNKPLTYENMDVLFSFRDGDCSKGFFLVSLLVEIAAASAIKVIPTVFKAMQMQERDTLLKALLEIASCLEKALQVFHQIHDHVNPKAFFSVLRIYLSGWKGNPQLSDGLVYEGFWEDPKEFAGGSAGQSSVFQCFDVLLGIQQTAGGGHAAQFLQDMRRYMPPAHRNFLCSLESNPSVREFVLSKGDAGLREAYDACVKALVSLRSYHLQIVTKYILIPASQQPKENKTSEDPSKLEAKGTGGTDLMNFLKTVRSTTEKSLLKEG
# method: HEK Human IDO-1 cell-based IDO inhibition assay (kynurenine production)
# studyConditions: HEK293 cells stably expressing human IDO1, 20 hours incubation, absorbance at 490 nm; read-out: HEK Human IDO-1 Bio Activity (IDO IC50)
pIC50: −log10 of the molar value.
quantityMeasured: pIC50

Study these solved cases before continuing.
[Q] Please list pIC50 recorded for the compound O=C(Nc1ccc(F)cc1)NC1CCN(c2ccnc3ccc(F)cc23)CC1
[A] > 5.70

[Q] Please list pIC50 recorded for the compound O=C(Nc1ccc(F)cc1F)N[C@H]1CC[C@H](c2ccnc3ccc(F)cc32)CC1
[A] > 6.60

[Q] Please list pIC50 recorded for the compound Cc1cnc(-c2ccc(C(=O)N[C@H](C)[C@H]3CC[C@@H](c4ccnc5ccc(F)cc54)CC3)cc2)s1
[A] > 7.30

More entries:
[Q] Please list pIC50 recorded for the compound C[C@@H](NC(=O)c1ccc(C2CC2)cc1)[C@H]1CC[C@@H](c2ccnc3ccc(F)cc32)CC1
[A] > 7.30

[Q] Please list pIC50 recorded for the compound CCC(NC(=O)c1ccc(Cl)cc1)C1CCC(c2ccnc3ccc(F)cc23)CC1 (single isomer, unassigned) [Example 164b]
[A] > 7.30

[Q] Please list pIC50 recorded for the compound C[C@@H](NC(=O)c1ccc(-c2cnco2)cc1)[C@H]1CC[C@@H](c2ccnc3ccc(F)cc32)CC1
[A] > 7.30

[Q] Please list pIC50 recorded for the compound CC[C@@H](NC(=O)c1ccc(Cl)cc1)[C@H]1CC[C@@H](c2cnc3ccccc3c2)CC1 (single isomer, unassigned) [Example 203a]
[A] > 5.70

[Q] Please list pIC50 recorded for the compound C[C@@H](NC(=O)c1ccc(-c2ccccc2)cc1)[C@H]1CC[C@@H](c2ccnc3ccc(F)cc32)CC1
[A] > 7.30

[Q] Please list pIC50 recorded for the compound CCC(NC(=O)c1ccc(-c2ccccc2)cc1)[C@H]1CC[C@@H](c2ccnc3ccc(C(F)(F)F)cc32)CC1 (mixture of isomers)
[A] > 7.30
